biological target: human PI3Kα protein (Homo sapiens, UniProt P42336); construct: purchased Carna Biosciences, Inc; host or cells: baculovirus expression system; test: PI3Kα enzyme assay (ADP-Glo); type: biochemical; conditions: read-out: PI3Kα enzyme inhibitory activity
Sequence (P42336 whole entry): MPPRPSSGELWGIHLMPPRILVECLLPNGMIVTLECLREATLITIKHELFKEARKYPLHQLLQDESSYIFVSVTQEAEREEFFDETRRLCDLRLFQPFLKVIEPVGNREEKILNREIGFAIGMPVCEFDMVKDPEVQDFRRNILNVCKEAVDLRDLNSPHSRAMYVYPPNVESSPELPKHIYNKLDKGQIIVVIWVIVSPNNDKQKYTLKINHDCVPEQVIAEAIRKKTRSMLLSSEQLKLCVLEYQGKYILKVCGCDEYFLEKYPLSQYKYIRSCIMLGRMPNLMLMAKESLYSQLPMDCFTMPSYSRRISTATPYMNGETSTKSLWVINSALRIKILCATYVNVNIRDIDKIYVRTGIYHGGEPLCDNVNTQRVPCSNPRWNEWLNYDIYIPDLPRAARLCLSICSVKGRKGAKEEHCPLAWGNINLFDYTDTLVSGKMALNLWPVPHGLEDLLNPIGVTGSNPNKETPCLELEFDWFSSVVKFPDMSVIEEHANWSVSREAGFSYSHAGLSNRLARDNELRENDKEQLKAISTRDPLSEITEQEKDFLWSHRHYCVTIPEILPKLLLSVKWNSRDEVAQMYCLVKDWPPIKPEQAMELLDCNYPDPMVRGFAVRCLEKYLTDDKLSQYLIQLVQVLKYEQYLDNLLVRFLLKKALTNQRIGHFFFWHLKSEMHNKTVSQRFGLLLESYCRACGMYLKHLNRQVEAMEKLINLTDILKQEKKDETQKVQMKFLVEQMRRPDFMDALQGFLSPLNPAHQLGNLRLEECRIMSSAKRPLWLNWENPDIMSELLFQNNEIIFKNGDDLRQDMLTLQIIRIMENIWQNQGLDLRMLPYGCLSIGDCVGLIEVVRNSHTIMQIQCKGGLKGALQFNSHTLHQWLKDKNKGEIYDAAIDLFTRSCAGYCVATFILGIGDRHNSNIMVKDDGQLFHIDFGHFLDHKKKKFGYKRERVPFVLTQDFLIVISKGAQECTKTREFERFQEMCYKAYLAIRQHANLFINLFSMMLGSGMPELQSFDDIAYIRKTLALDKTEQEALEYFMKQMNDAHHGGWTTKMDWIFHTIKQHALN
Sequence (P27986 whole entry partner): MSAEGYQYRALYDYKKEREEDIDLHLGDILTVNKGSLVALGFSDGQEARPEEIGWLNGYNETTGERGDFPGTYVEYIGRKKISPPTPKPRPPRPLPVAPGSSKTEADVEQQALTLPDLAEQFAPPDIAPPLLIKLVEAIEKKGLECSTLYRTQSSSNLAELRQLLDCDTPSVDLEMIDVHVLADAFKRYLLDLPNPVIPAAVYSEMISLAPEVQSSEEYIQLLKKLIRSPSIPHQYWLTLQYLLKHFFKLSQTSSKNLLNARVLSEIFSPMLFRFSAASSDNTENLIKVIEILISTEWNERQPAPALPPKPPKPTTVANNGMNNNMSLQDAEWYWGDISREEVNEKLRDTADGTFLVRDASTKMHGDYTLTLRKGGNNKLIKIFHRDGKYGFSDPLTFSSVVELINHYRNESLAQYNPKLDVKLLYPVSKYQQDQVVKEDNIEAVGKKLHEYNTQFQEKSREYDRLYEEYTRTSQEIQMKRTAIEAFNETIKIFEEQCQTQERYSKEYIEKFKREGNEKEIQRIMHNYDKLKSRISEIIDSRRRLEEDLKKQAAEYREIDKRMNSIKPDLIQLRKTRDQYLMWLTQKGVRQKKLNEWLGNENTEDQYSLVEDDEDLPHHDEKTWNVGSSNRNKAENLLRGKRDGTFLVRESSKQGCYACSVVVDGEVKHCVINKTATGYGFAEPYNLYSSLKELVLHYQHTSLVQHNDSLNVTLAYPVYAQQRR
Measured IC50 by item

- molecule: "CC(C)COC1CN(CCCn2cc(-c3cnc4ccc(Nc5cc(C(C)C)cnn5)nc4c3)cn2)C1 [Example 0708]"
  targetEntity: "human PI3Kα protein (Homo sapiens, UniProt P42336)"
  IC50: "< 1 µM"
- molecule: "CC(C)c1cnnc(Nc2ccc3ncc(-c4cn(C)nc4C4CN(C(=O)OC(C)(C)C)C4)cc3n2)c1 [Example 0779]"
  targetEntity: "human PI3Kα protein (Homo sapiens, UniProt P42336)"
  IC50: "< 1 µM"
- molecule: "CC(C)c1cnnc(Nc2ccc3ncc(-c4cn(C)nc4C(F)(F)F)cc3n2)c1 [Example 0634]"
  targetEntity: "human PI3Kα protein (Homo sapiens, UniProt P42336)"
  IC50: "< 1 µM"
- molecule: "CCc1nc(C)cn1-c1cnc2ccc(Nc3cc(C(C)C)cnn3)nc2c1 [Example 0514]"
  targetEntity: "human PI3Kα protein (Homo sapiens, UniProt P42336)"
  IC50: "1 to 10 µM"
- molecule: "CNCc1nn(C)cc1-c1cnc2ccc(Nc3nnc(C(C)C)s3)nc2c1 [Example 0383]"
  targetEntity: "human PI3Kα protein (Homo sapiens, UniProt P42336)"
  IC50: "1 to 10 µM"
- molecule: "CC(C)c1cnnc(Nc2ccc3ncc(-c4cnn(CCCN5CCC(F)(F)C5)c4)cc3n2)c1 [Example 0427]"
  targetEntity: "human PI3Kα protein (Homo sapiens, UniProt P42336)"
  IC50: "< 1 µM"
- molecule: "CC(C)c1cnnc(Nc2ccc3ncc(-c4cnn(Cc5ccc(N)nc5)c4)cc3n2)c1 [Example 0464]"
  targetEntity: "human PI3Kα protein (Homo sapiens, UniProt P42336)"
  IC50: "< 1 µM"
- molecule: "Cc1nn(C)cc1-c1cnc2ccc(Nc3cc(C4(C)CC4)cnn3)nc2c1 [Example 0885]"
  targetEntity: "human PI3Kα protein (Homo sapiens, UniProt P42336)"
  IC50: "< 1 µM"

====

biological target: human PI3Kα protein (Homo sapiens); construct: purchased Carna Biosciences, Inc; host or cells: baculovirus expression system; test: PI3Kα enzyme assay (ADP-Glo); format: biochemical; settings: read-out: PI3Kα enzyme inhibitory activity
pIC50: −log10 of the molar value.
Measured pIC50 by item

- compound: "CC(C)c1nnc(Nc2ccc3nccc(N4CCOCC4)c3n2)s1 [Example 0286]"
  targetEntity: "human PI3Kα protein (Homo sapiens)"
  pIC50: "5.00 to 6.00"
- compound: "CC(C)c1nnc(Nc2ccc3nccc(-c4ccn[nH]4)c3n2)s1 [Example 0285]"
  targetEntity: "human PI3Kα protein (Homo sapiens)"
  pIC50: "> 6.00"
- compound: "CC(C)c1cnnc(Nc2ccc3ncc(N4CC(NS(C)(=O)=O)C4)cc3n2)c1 [Example 0867]"
  targetEntity: "human PI3Kα protein (Homo sapiens)"
  pIC50: "> 6.00"
- compound: "CC(C)c1cnnc(Nc2ccc3ncc(-c4cnn(CCC5CCNCC5)c4)cc3n2)c1 [Example 0488]"
  targetEntity: "human PI3Kα protein (Homo sapiens)"
  pIC50: "> 6.00"
- compound: "Cc1n[nH]c(C)c1-c1cnc2ccc(Nc3cc(C(C)C)cnn3)nc2c1 [Example 0621]"
  targetEntity: "human PI3Kα protein (Homo sapiens)"
  pIC50: "5.00 to 6.00"
- compound: "CC(C)c1cnnc(Nc2ccc3ncc(-c4cccnc4)cc3n2)c1 [Example 0407]"
  targetEntity: "human PI3Kα protein (Homo sapiens)"
  pIC50: "5.00 to 6.00"
- compound: "COc1c(-c2cnn(C)c2)cnc2ccc(Nc3nnc(C4CCCC4)s3)nc12 [Example 0355]"
  targetEntity: "human PI3Kα protein (Homo sapiens)"
  pIC50: "> 6.00"
- compound: "Cn1cc(-c2cnc3ccc(Nc4cc(C5CCC5)cnn4)nc3c2)cn1 [Example 0577]"
  targetEntity: "human PI3Kα protein (Homo sapiens)"
  pIC50: "> 6.00"
- compound: "CC(C)c1cnnc(Nc2ccc3ncc(-c4cnn(CC(=O)N(C)C)c4)cc3n2)c1 [Example 0549]"
  targetEntity: "human PI3Kα protein (Homo sapiens)"
  pIC50: "> 6.00"
